- experimental-target: c-KIT T670I kinase (Homo sapiens, UniProt P10721, T670I)
- Construct: The construct contains residues T544-V976 of cKit; GST (N); TEV cleavage site (internal)
- Sequence (P10721 544-976 T670I): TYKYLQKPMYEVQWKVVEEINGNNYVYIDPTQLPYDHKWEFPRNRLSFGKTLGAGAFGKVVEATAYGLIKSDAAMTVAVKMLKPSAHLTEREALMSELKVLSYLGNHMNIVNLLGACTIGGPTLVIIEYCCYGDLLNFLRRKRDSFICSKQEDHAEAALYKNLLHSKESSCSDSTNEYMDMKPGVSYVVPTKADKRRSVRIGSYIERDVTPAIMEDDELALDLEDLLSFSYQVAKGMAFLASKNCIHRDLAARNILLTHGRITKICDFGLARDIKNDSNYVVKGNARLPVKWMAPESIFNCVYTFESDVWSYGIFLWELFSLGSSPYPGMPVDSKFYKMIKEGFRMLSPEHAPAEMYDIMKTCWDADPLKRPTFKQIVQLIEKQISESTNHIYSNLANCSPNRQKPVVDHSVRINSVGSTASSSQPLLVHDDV
- assay-comment: c-KIT T670I kinase assay
- assay-conditions: enzymatic assay
readout-type: IC50

INPUT: IC50 for "CNc1cc2c(cn1)cc(-c1cc(NC(=O)Nc3cccc(F)c3F)c(F)cc1Cl)c(=O)n2C" ?
OUTPUT: 10 to 100 nM

INPUT: Record request: IC50 value, item "CCn1c(=O)c(-c2ccc(F)c(NC(=O)Nc3cccc4ccccc34)c2)cc2cnc(NC)cc21"
OUTPUT: < 10 nM

INPUT: Could you tell me which IC50 is on file for "CCn1c(=O)c(-c2cc(NC(=O)Nc3cc(F)cc(Cl)c3)c(F)cc2C)cc2cnc(NC)cc21" ?
OUTPUT: 10 to 100 nM

INPUT: Which measured IC50 value corresponds to "CCn1c(=O)c(-c2cc(NC(=O)Nc3cccc(F)c3)c(F)cc2C)cc2cnc(N)cc21" ?
OUTPUT: 10 to 100 nM
